Target: Human IBAT (Homo sapiens)
Construct: Puromycin-selected
Sequence (Q12908 1-348): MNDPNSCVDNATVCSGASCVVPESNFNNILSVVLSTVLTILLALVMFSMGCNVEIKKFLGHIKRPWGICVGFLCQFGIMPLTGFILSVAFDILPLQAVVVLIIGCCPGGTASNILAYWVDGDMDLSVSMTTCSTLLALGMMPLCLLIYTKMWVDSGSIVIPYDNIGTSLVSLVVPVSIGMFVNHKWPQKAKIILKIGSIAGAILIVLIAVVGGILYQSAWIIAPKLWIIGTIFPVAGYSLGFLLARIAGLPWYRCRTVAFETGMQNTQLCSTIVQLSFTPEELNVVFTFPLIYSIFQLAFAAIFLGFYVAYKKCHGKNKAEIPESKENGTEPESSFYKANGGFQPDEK
Assay: IBAT (h/m) assay, human IBAT-overexpressing cells, 3H-taurocholic acid uptake
Conditions: 0.25 μM 3H-taurocholic acid and 5 μM cold taurocholic acid, 20 minutes, read-out: hIBAT IC50
endpoint: IC50 (nM)

Please review the entries below; each comes with its answer.
{"molecule": "CCCCC1(CC)CN(c2ccccc2)c2cc(Cl)c(OC(C)CC(=O)O)cc2S(=O)(=O)C1 (single isomer, unassigned) [30, diastereomers 3 and 4]", "measurement_target": "Human IBAT (Homo sapiens)", "IC50, nM": 263}
{"molecule": "CCCCC1(C)CN(c2ccccc2)c2cc(SC)c(OCC(O)C(=O)O)cc2S(=O)(=O)C1 (stereo not drawn) [Example 31]", "measurement_target": "Human IBAT (Homo sapiens)", "IC50, nM": 10}
{"molecule": "CCCCC1(C)CN(c2ccccc2)c2cc(SC)c(OC[C@H](O)C(=O)O)cc2S(=O)(=O)C1 (single isomer, unassigned)", "measurement_target": "Human IBAT (Homo sapiens)", "IC50, nM": 8}
{"molecule": "CCCCC1(CC)CN(c2ccccc2)c2cc(Br)c(OCCC(=O)O)cc2S(=O)(=O)C1 (single isomer, unassigned) [Example 3]", "measurement_target": "Human IBAT (Homo sapiens)", "IC50, nM": 241}

a. CCCCC1(CC)CN(c2ccccc2)c2cc(SC)c(OCC(O)C(=O)O)cc2S(=O)(=O)C1 (single isomer, unassigned) [40, diastereomer 1]
b. CCCCC1(CC)CN(c2ccccc2)c2cc(SC)c(OCC(O)C(=O)O)cc2S(=O)(=O)C1 (stereo not drawn) [Example 39]
Between a and b , whose recorded IC50 is greater? // caller expects the label of the chosen entry a
